Biological target: His-GST-TVMV-hRIPK1(1-324) (Homo sapiens, UniProt Q13546)
Construct: The coding region of human RIPK1(1-324) flanked by NdeI site at 5′ end; made in house; host or cells: Spodoptera frugiperda Sf9 insect cells (baculovirus, Bac-to-Bac)
Sequence (Q13546 1-324): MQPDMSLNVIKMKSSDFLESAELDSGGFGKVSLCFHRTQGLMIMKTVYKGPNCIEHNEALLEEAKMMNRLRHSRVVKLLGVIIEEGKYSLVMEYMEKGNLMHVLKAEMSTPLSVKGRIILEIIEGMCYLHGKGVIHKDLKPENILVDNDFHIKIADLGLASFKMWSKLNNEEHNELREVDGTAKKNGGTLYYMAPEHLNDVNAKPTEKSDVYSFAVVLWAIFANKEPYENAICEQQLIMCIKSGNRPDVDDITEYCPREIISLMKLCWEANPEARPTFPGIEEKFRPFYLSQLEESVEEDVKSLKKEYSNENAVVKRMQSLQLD
Experiment: biochemical
Format: binding
Settings: Table 23, representative compounds from WO2018/148626; read-out: RIPK1 IC50
Each item that follows carries a reported IC50.
Outcome measure: IC50 (nM)

{"columns": ["Compound", "Measured target", "Meas value"],
 "data": [
  ["COc1ncc(-c2ccn3nc(N)nc3c2)cc1C(=O)NCCC(O)c1ccc(F)cc1 (stereo not drawn)", "His-GST-TVMV-hRIPK1(1-324) (Homo sapiens, UniProt Q13546)", 120],
  ["COc1ncc(-c2ccn3nc(N)nc3c2)cc1C(=O)NCC[C@H](O)c1ccc(Cl)cc1", "His-GST-TVMV-hRIPK1(1-324) (Homo sapiens, UniProt Q13546)", 59],
  ["Cc1ncc(-c2ccn3nc(N)nc3c2)cc1C(=O)NCC(C)(O)Cc1ccc(F)cc1 (stereo not drawn) [Compound 421 from WO2018/148626, reference compound]", "His-GST-TVMV-hRIPK1(1-324) (Homo sapiens, UniProt Q13546)", 110]
]}

====

System: MLKL phosphorylation in HT29-L23 human colorectal adenocarcinoma cells
Test: MLKL phosphorylation high-content assay
Type: cell-based
Conditions: Table 22, compounds of the present invention; read-out: pMLKL IC50
Outcome measure: IC50

{"columns": ["Compound", "Meas value"],
 "data": [
  ["Cc1ccc(-c2ccn3nc(N)nc3c2)c(F)c1C(=O)NC(C)CC(O)c1ccc(Cl)cc1 (racemic) [Example 20]", "3.6 nM"],
  ["Cc1ccc(-c2ccn3nc(N)nc3c2)c(F)c1C(=O)NC(C)CC(O)c1ccc(Cl)cc1 (racemic) [Example 19]", "7.7 nM"]
]}

====

Each item that follows carries a reported pIC50.
Test system: MLKL phosphorylation in HT29-L23 human colorectal adenocarcinoma cells
Assay: MLKL phosphorylation high-content assay
Assay type: cell-based
Settings: Homo sapiens, 6 h, read-out: pMLKL IC50, HT29-L23 cells; necroptosis induced with TNFα, SMAC mimetic and Z-VAD, 6 h; maximal inhibition defined by Nec1s
pIC50: −log10 of the molar value.

{"columns": ["Compound", "pIC50"],
 "data": [
  ["[2H]C([2H])([2H])c1ccc(-c2ccn3nc(N)nc3c2)c(F)c1C(=O)NCC1(C(O)c2ccc(F)cc2)CC1 (single isomer, unassigned) [Example 307]", 7.85],
  ["Cc1ccc(-c2ccn3nc(N)nc3c2)c(Cl)c1C(=O)NCC[C@H](O)c1ccc(Cl)cc1 [Example 145]", 7.46],
  ["Cc1ccc(-c2ccn3nc(N)nc3c2)c(F)c1C(=O)NCC[C@@H](O)c1ccc(Cl)cc1 [Example 152]", 9.30],
  ["Nc1nc2cc(-c3ccc(Cl)c(C(=O)NC[C@H](F)[C@H](O)c4ccc(F)cc4)c3F)ccn2n1 (single isomer, unassigned) [Example 299]", 7.43],
  ["Cc1cc(F)c(-c2ccn3nc(N)nc3c2)cc1C(=O)NCCC(O)c1ccc(Cl)cn1 (stereo not drawn) [Example 5]", 8.59],
  ["CCc1cc(F)c(-c2ccn3nc(N)nc3c2)cc1C(=O)NCC[C@H](O)c1ccc(Cl)cc1 [Example 157]", 8.17],
  ["Nc1nc2cc(-c3ccc(Cl)c(C(=O)NCC(O)C(F)(F)c4ccc(F)cc4)c3F)ccn2n1 (single isomer, unassigned) [Example 292]", 9.00],
  ["Cc1cc(F)c(-c2ccn3nc(N)nc3c2)cc1C(=O)NCC(F)(F)C(C)(O)c1ccc(Cl)cc1 (single isomer, unassigned) [Example 225]", 8.42],
  ["Nc1nc2cc(-c3ccc(OC(F)F)c(C(=O)NCC(F)(F)[C@@H](O)c4ccc(F)cc4)c3F)ccn2n1 [Example 306]", 8.38],
  ["Cc1ccc(-c2ccn3nc(N)nc3c2)c(F)c1C(=O)NCCC(C)(O)c1ccc(Cl)cc1 (racemic) [Example 17]", 8.60],
  ["Nc1nc2cc(-c3ccc(Cl)c(C(=O)NCC(F)C(O)c4ccc(F)cc4)c3F)ccn2n1 (stereo not drawn) [Example 130]", 8.54],
  ["Cc1ccc(-c2ccn3nc(N)nc3c2)c(F)c1C(=O)NCCC(O)c1c(F)cccc1F (single isomer, unassigned) [Example 74]", 8.09],
  ["[2H]C([2H])([2H])c1ccc(-c2ccn3nc(N)nc3c2)c(F)c1C(=O)NCC(F)(F)C(C)(O)c1ccc(F)cc1 (single isomer, unassigned) [Example 241]", 8.92],
  ["Cc1ccc(C(O)C(F)(F)CNC(=O)c2c(Cl)ccc(-c3ccn4nc(N)nc4c3)c2F)cc1 (stereo not drawn) [Example 173]", 9.05],
  ["Cc1ccc(-c2ccn3nc(N)nc3c2)c(F)c1C(=O)NCCC(O)c1ccc(C(F)(F)F)cc1 (stereo not drawn) [Example 55]", 9.05],
  ["Nc1nc2cc(-c3ccc(Cl)c(C(=O)NCC(F)(F)C(O)c4ccc(C(F)(F)F)cc4F)c3F)ccn2n1 (stereo not drawn) [Example 164]", 8.54],
  ["Nc1nc2cc(-c3ccc(Cl)c(C(=O)NCCC(O)c4ccc(F)cc4)c3F)ccn2n1 (single isomer, unassigned) [Example 79]", 7.72],
  ["Nc1nc2cc(-c3ccc(Cl)c(C(=O)NCCC(O)c4ccc(F)cc4)c3F)ccn2n1 (single isomer, unassigned) [Example 80]", 7.57],
  ["Cc1ccc(-c2ccn3nc(N)nc3c2)c(F)c1C(=O)NCCC(O)c1ccc(F)cc1 (stereo not drawn) [Example 49]", 8.59],
  ["Nc1nc2cc(-c3ccc(Cl)c(C(=O)NCC(F)(F)C4(c5ccc(F)cc5)COC4)c3F)ccn2n1 [Example 245]", 8.43],
  ["Nc1nc2cc(-c3ccc(Cl)c(C(=O)NC[C@@H](F)[C@H](O)c4ccc(F)cc4)c3F)ccn2n1 (single isomer, unassigned) [Example 297]", 8.80],
  ["Cc1ccc(-c2ccn3nc(N)nc3c2)c(F)c1C(=O)NCCC(c1ccccc1)C(F)(F)F (racemic) [Example 11]", 8.23],
  ["Cc1ccc(-c2ccn3nc(N)nc3c2)c(F)c1C(=O)NCC(F)(F)C(=O)c1ccc(F)cc1 [Example 281]", 8.89],
  ["[2H]C([2H])([2H])c1ccc(-c2ccn3nc(N)nc3c2)c(F)c1C(=O)NCC1(C([2H])(O)c2ccc(F)cc2)CC1 (single isomer, unassigned) [Example 309]", 7.96],
  ["Cc1ccc(-c2ccn3nc(N)nc3c2)c(F)c1C(=O)NCCC(O)C1CCCCC1 (stereo not drawn) [Example 40]", 8.82],
  ["Cc1c(F)cc(-c2ccn3nc(N)nc3c2)cc1C(=O)NCCC(C)c1ccccc1 (stereo not drawn) [Example 95]", 8.23],
  ["Cc1ccc(-c2ccn3nc(N)nc3c2)c(F)c1C(=O)NCCC(C)(C)c1ccccc1 [Example 58]", 8.64]
]}
